Values compiled from ChEMBL document CHEMBL1201862.

# System: SK-OV-3
# Procedure Details: NCI tumour cell line growth inhibition, 48 h
Calls of active or inactive are those of the source. No stated cut-off is given here; in the data, active = GI50 up to about 1.1 µM and inactive = higher.
Measured Attribute: GI50

{"Compound": "Cc1cc(S(=O)(=O)N/C(=C(\\C#N)C(=O)c2ccccc2)[n+]2ccc(N(C)C)cc2)c([S-])cc1Cl", "GI50": "> 100 µM (inactive)"}
{"Compound": "COc1cc(/C=C2\\CCc3ccccc3C2=O)ccc1O", "GI50": "26 µM (inactive)"}
{"Compound": "O=CC(=C(I)I)c1ccccc1", "GI50": "15.9 µM (inactive)"}
{"Compound": "C=CCN(CC=C)CC(C(C)=O)C(c1ccccc1)c1c(O)c2ccccc2oc1=O (centres undefined)", "GI50": "> 100 µM (inactive)"}
{"Compound": "Cc1ccc(N2C(=O)/C(=C3\\Sc4c(nc(C)n(C)c4=O)N3c3ccccc3)SC2=S)cc1", "GI50": "54.8 µM (inactive)"}
{"Compound": "Oc1ccc(CCc2cc(O)cc(O)c2)cc1 [DIHYDRORESVERATROL]", "GI50": "> 100 µM (inactive)"}

[ask] Request - read-out GI50 | tested on SK-OV-3 | compound `CCOC(=O)/C(C#N)=C(N)/C(=N\Nc1cccc(C(F)(F)F)c1)C(=O)OCC`
[reply] > 100 µM (inactive)

[ask] Request - read-out GI50 | tested on SK-OV-3 | compound COC(=O)C1=C(OC(=O)/C(=C/c2ccc(Cl)cc2)c2ccc(Cl)cc2)C(C(=O)OC)[C@]2(O)[C@@H](C(=O)OC)[C@H]1C[C@@H](c1ccccc1)[C@@H]2C(=O)OC (some centres undefined)
[reply] 64 µM (inactive)

[ask] Request - read-out GI50 | tested on SK-OV-3 | compound `CC1=NN(C(=O)c2ccc(Cl)cc2)C(=O)/C1=C/c1cccc([N+](=O)[O-])c1`
[reply] > 100 µM (inactive)
